- Experimental system: eIF4E (untagged, co-expressed with p20);His6x-p20 WT (Saccharomyces cerevisiae;Saccharomyces cerevisiae) (UniProt P07260+P12962)
- Sequence 1: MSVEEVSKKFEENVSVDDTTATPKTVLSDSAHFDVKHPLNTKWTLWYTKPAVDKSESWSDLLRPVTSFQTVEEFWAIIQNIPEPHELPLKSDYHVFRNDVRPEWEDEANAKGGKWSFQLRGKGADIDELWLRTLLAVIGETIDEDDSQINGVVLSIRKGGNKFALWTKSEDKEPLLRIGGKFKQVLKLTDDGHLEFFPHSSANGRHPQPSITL
- Sequence 2: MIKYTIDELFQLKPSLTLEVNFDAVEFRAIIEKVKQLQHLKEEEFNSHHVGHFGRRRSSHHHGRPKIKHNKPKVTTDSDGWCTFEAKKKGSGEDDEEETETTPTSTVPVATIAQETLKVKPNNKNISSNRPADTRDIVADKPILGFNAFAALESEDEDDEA
- Run description: MST
- Run conditions: control of the 6x mutant experiment; 5' m7GpppG cap (Vaccinia Capping System); Buffer A: 10 mM sodium phosphate pH 7.5, 100 mM NaCl, 2.5 mM MgCl2, 1 mM DTT, 0.05% NP40; MST at 25 C (proteins for capped RNA MST RED-tris-NTA labeled in …)
Readout kind: Kd (nM)
Give the value in nM but do not write nM after it.

The sequence GGGAACAAAAGCUGGUAAUCAAGAAUUACAAGAAACAAAAAUUCAAGUAAAUAACAGAUAAUAC [capped SSA1 5'UTR RNA, 64 nt] showed Kd equal to 46.9
